Read-out: Interleukin-8 (IL8), CXCL8 (gene 3576)
experiment: BSK_LPS_IL8: BioMAP Diversity Plus: LPS Assay for Interleukin-8 (IL8) Biomarker Activity (AID 2283078)
condition.info: primary human HUVEC with PBMC; actives raise or lower the signal
Calls of active or inactive are those of the source. Rule for the calls: active = hit-call score of the fitted dose curve at least 0.9, where 1 is the maximum; inactive = score below 0.9.
Outcomes: active, inactive

compound | class.assignment
OCCNCCO | inactive
Cc1nc(-c2ccccn2)ncc1C(=O)Nn1cc(C)c2cc(F)ccc21 | inactive
CCCCCCOC(=O)CC(CC(=O)OCCCCCC)(OC(=O)CCC)C(=O)OCCCCCC | inactive
OC(Cn1cncn1)(Cn1cncn1)c1ccc(F)cc1F | inactive
CCCC(CCC)C(=O)O | inactive
COc1cc2c(c(OC)c1OC)-c1ccc(OC)c(=O)cc1[C@@H](NC(C)=O)CC2 | inactive
FC(F)(F)COC(OCC(F)(F)F)OCC(F)(F)F | inactive
O=C(O)c1cccc(C(=O)O)c1 | inactive
OCC(CO)(CO)CO | inactive
CC[C@H](C)C(=O)O[C@H]1C[C@H](O)C=C2C=C[C@H](C)[C@H](CC[C@@H](O)C[C@@H](O)CC(=O)O)[C@H]21 | inactive
OCc1ccccc1 | inactive
FC(F)=C(F)C(F)(F)C(F)(F)C(F)(F)C(F)(F)C(F)(F)C(F)(F)F | inactive
CC(C)c1nnc2ccc(-c3ocnc3-c3cc(F)ccc3F)cn12 | active
O=c1[nH]cnc2c1ncn2[C@H]1CC[C@@H](CO)O1 | inactive
C[C@@H](Oc1ccc(CNC(=O)c2cccnc2Oc2ccc3c(c2)OCO3)c(F)c1)C(=O)O | inactive
C=CN1CCCC1=O | inactive
OCCOCCOCCO | inactive
c1ccc2c(c1)-c1cccc3c1c-2cc1ccccc13 | inactive
O=C(O)[C@H](O)[C@@H](O)C(=O)O | inactive
CCc1ccc(O)c(C(C)(C)C)c1 | inactive
CCCCCCCC/C=C\CCCCCCCC(=O)OC[C@@H](O)[C@H]1OC[C@H](O)[C@H]1O | inactive
O=C1CN(N=Cc2ccc([N+](=O)[O-])o2)C(=O)N1 | inactive
CC(C)CC(C)O (configuration not stated) | inactive
O=S1(=O)CCCO1 | inactive
OC(CCl)CCl | inactive
Cc1cccc(O)c1C | inactive
NC(=O)N(O)[C@@H]1COc2cc(OCc3ccccc3)ccc21 | inactive

* * *

experiment: CCTE_Shafer_MEA_dev_mutual_information_norm: CCTE's Neural Network Formation Assay for Mutual Information Normalization, Shafer Lab (AID 2284091)
Active and inactive are the calls of the source. Rule for the calls: active = hit-call score of the fitted dose curve at least 0.9, where 1 is the maximum; inactive = score below 0.9.
Labels: yes (1) (active), no (0) (inactive)

mol.smiles | class.assignment
OCCC(F)(F)C(F)(F)C(F)(F)C(F)(F)F | no (0)
CCCC(CCC)C(=O)O | no (0)
OC(Cn1cncn1)(Cn1cncn1)c1ccc(F)cc1F | no (0)
OC(O)(C(F)C(O)(O)C(F)(F)F)C(F)(F)F | no (0)
C[C@]12C=CC(=O)C=C1CC[C@H]1[C@@H]3C[C@@H](O)[C@](O)(C(=O)CO)[C@@]3(C)C[C@H](O)[C@@]12F | no (0)
FC(F)(F)COC(OCC(F)(F)F)OCC(F)(F)F | no (0)
c1ccc2c(c1)-c1cccc3c1c-2cc1ccccc13 | yes (1)
FC(F)(F)C(F)(F)C(F)(F)C(F)(F)C(F)(F)C(F)(F)I | no (0)
COc1cc2c(c(OC)c1OC)-c1ccc(OC)c(=O)cc1[C@@H](NC(C)=O)CC2 | yes (1)
NCC(F)(F)C(F)(F)C(F)(F)C(F)(F)F | no (0)
CC[C@H](C)C(=O)O[C@H]1C[C@H](O)C=C2C=C[C@H](C)[C@H](CC[C@@H](O)C[C@@H](O)CC(=O)O)[C@H]21 | yes (1)
c1ccc2cc3ccccc3cc2c1 | no (0)
O=C(Cl)C(F)(F)C(F)(F)C(F)(F)C(=O)Cl | no (0)

* * *

target.under.test: human Protein Tyrosine Phosphatase Non-receptor Type 6 (PTPN6), PTPN6 (gene 5777) (UniProt P29350)
Sequence (P29350 whole entry, looked up): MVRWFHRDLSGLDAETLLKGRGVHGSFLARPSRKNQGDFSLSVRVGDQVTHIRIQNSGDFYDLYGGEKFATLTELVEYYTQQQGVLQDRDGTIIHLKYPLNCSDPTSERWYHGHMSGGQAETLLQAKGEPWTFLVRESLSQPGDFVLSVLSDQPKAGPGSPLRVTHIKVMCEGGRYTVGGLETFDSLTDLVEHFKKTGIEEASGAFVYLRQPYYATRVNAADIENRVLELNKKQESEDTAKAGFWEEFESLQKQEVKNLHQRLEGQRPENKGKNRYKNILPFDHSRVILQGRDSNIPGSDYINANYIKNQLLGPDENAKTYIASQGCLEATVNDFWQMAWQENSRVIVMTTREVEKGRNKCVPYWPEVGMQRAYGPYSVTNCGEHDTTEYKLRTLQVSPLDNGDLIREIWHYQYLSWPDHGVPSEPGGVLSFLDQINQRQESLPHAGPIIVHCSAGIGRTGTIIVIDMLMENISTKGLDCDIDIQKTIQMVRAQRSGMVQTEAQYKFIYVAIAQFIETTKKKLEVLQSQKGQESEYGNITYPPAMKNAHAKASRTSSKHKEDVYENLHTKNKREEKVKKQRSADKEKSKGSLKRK
experiment: NVS_ENZ_hPTPN6: NovaScreen (NVS) Enzymatic Assay for human Protein Tyrosine Phosphatase Non-receptor Type 6 (PTPN6) (AID 2283210)
Records with an inconclusive call do not appear. The source made the active and inactive calls. How the source made its calls: active means hit-call score of the fitted dose curve at least 0.9, where 1 is the maximum; inconclusive means response in the unintended direction; inactive means score below 0.9.
Outcomes: y for active, n for inactive

mol.smiles | class.assignment
CNC(C)=O | n
COS(C)(=O)=O | n
C=CN1CCCC1=O | n
NC(=O)NN=Cc1ccc([N+](=O)[O-])o1 | y
OC[C@H]1O[C@@H]2O[C@H]3[C@H](O)[C@@H](O)[C@@H](O[C@H]4[C@H](O)[C@@H](O)[C@@H](O[C@H]5[C@H](O)[C@@H](O)[C@@H](O[C@H]6[C@H](O)[C@@H](O)[C@@H](O[C@H]7[C@H](O)[C@@H](O)[C@@H](O[C@H]1[C@H](O)[C@H]2O)O[C@@H]7CO)O[C@@H]6CO)O[C@@H]5CO)O[C@@H]4CO)O[C@@H]3CO | n
OCCOCCOCCO | n
O=C(O)c1cccc(C(=O)O)c1 | n

* * *

Read-out: E-selectin (Homo sapiens) (UniProt P16581)
Sequence (P16581 whole entry, looked up): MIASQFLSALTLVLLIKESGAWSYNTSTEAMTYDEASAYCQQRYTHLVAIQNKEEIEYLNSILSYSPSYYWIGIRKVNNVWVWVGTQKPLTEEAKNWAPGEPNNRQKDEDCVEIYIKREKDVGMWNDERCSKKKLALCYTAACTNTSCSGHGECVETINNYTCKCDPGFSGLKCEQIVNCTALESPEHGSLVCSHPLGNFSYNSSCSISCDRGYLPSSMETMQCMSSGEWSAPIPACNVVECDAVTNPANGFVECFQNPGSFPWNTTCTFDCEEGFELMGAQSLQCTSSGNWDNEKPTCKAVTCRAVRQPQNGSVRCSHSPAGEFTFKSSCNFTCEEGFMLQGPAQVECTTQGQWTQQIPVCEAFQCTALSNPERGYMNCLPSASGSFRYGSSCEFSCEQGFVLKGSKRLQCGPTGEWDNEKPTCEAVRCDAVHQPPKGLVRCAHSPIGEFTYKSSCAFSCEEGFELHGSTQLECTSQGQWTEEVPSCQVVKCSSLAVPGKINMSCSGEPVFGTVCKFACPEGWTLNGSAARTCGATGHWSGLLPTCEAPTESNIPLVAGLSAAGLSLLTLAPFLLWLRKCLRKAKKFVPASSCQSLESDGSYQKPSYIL
experiment: BSK_SAg_Eselectin: BioMAP Diversity Plus: SAg Assay for Eselectin Biomarker Activity (AID 2283091)
condition.info: primary human HUVEC with PBMC; actives raise or lower the signal
Active and inactive are the calls of the source. The calls were made as follows: active = hit-call score of the fitted dose curve at least 0.9, where 1 is the maximum; inactive = score below 0.9.
Possible outcomes: active, inactive

mol.smiles | class.assignment
O=c1[nH]cnc2c1ncn2[C@H]1CC[C@@H](CO)O1 | inactive
c1ccc(C(O[C@@H]2CCCN(CCc3ccc4c(c3)OCO4)C2)c2ccccc2)cc1 | active
CCCCCCOC(=O)CC(CC(=O)OCCCCCC)(OC(=O)CCC)C(=O)OCCCCCC | inactive
Nc1ccn([C@@H]2O[C@H](CO)[C@@H](O)[C@@H]2O)c(=O)n1 | active
C[C@@H](Oc1ccc(CNC(=O)c2cccnc2Oc2ccc3c(c2)OCO3)c(F)c1)C(=O)O | inactive
CCCOc1ccc(S(=O)(=O)N2CCN(CC)CC2)cc1-c1nc2c(CC)n(Cc3ccccn3)nc2c(=O)[nH]1 | inactive
CCN(CC)C(=S)SSC(=S)N(CC)CC | active
C=CCc1cc(S(=O)(=O)c2ccc(O)c(CC=C)c2)ccc1O | active
O=C(O)c1ccc2c(c1)nc(C(=O)NC1CCN(C3CC3)CC1)n2Cc1cc(-c2ccc(Cl)s2)on1 | inactive
c1ccc2cc3ccccc3cc2c1 | inactive

* * *

target.under.test: human Dopamine Receptor D2 (DRD2), DRD2 (gene 1813) (UniProt P14416)
Sequence (P14416 whole entry, looked up): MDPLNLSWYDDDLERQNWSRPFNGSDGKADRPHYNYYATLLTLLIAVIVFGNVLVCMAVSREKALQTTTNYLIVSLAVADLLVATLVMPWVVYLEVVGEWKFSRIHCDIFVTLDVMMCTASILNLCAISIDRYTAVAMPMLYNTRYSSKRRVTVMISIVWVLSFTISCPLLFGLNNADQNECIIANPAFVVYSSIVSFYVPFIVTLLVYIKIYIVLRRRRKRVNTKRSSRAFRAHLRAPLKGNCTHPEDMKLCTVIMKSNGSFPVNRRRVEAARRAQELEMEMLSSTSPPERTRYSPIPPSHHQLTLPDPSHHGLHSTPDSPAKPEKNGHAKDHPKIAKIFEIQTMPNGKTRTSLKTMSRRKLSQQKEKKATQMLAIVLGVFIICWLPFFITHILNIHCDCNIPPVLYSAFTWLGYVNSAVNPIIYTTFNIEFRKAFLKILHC
experiment: NVS_GPCR_hDRD2s: NovaScreen (NVS) G Protein-Coupled Receptor Assay for human Dopamine Receptor D2 (DRD2) (AID 2283266)
Results filed as inconclusive are left out. Activity calls are given as the source filed them. Rule for the calls: active = hit-call score of the fitted dose curve at least 0.9, where 1 is the maximum; inconclusive = response in the unintended direction; inactive = score below 0.9.
Possible outcomes: True (active), False (inactive)

mol.smiles | class.assignment
O=c1[nH]cnc2c1ncn2[C@H]1CC[C@@H](CO)O1 | True
CCc1ccc(O)c(C(C)(C)C)c1 | False
O=S(=O)(O)c1ccc(N=Nc2c(O)ccc3cc(S(=O)(=O)O)ccc23)cc1 | True
CCCCCCCCCCCCCCCCOS(=O)(=O)O | False

* * *

target.under.test: Transcription factor Sp1 (Homo sapiens)
experiment: ATG_Sp1_CIS: Attagene CIS-FACTORIAL HepG2 Assay for human Specificity Protein 1 (Sp1) (AID 2282961)
condition.info: HepG2 Sp1 cis-reporter transcription, actives raise or lower the signal
Activity calls are given as the source filed them. How the source made its calls: active means hit-call score of the fitted dose curve at least 0.9, where 1 is the maximum; inactive means score below 0.9.
Classes used: active, inactive

mol.smiles | class.assignment
CCOC(N)=O | inactive
C=CCc1cc(S(=O)(=O)c2ccc(O)c(CC=C)c2)ccc1O | inactive
O=c1[nH]cnc2c1ncn2[C@H]1CC[C@@H](CO)O1 | inactive
O=C(O)c1ccc2c(c1)nc(C(=O)NC1CCN(C3CC3)CC1)n2Cc1cc(-c2ccc(Cl)s2)on1 | inactive
O=C(NO)C1(NS(=O)(=O)c2ccc(Oc3ccc(F)cc3)cc2)CCOCC1 | inactive
COc1cc(C(C)C)c2c(c1)S(=O)(=O)N(COc1cc(=O)n3cccc(OCCN4CCCCC4)c3n1)C2=O | active
OC[C@H]1O[C@@](CO)(O[C@H]2O[C@H](CO)[C@@H](O)[C@H](O)[C@H]2O)[C@@H](O)[C@@H]1O | inactive
COc1cc2c(c(OC)c1OC)-c1ccc(OC)c(=O)cc1[C@@H](NC(C)=O)CC2 | inactive
CNC(C)=O | inactive
NCC(F)(F)C(F)(F)C(F)(F)C(F)(F)F | inactive
CCc1cccc(CC)c1N | inactive
COS(C)(=O)=O | inactive
Cc1nccn1-c1ccc(Sc2cccc(C3(C(N)=O)CCOCC3)c2)cc1 | active
O=S(=O)(O)c1ccc(N=Nc2c(O)ccc3cc(S(=O)(=O)O)ccc23)cc1 | inactive
Cc1ccc(S(=O)(=O)NC(=O)NN2CCCCCC2)cc1 | inactive
Cn1cc[nH]c1=S | inactive
FC(F)(F)COC(OCC(F)(F)F)OCC(F)(F)F | inactive
FC(F)(F)C(F)(F)C(F)(F)C(F)(F)C(F)(F)C(F)(F)I | inactive
O=S1(=O)CCCO1 | inactive
OC(Cn1cncn1)(Cn1cncn1)c1ccc(F)cc1F | inactive
c1ccc2c(c1)-c1cccc3c1c-2cc1ccccc13 | inactive
CC(C)C(=O)Nc1ccc([N+](=O)[O-])c(C(F)(F)F)c1 | inactive
c1ccc(C(O[C@@H]2CCCN(CCc3ccc4c(c3)OCO4)C2)c2ccccc2)cc1 | inactive
OC(CCl)CCl | inactive
Cc1nc(-c2ccccn2)ncc1C(=O)Nn1cc(C)c2cc(F)ccc21 | inactive
